assayed-target: Bcl-xL (UniProt Q07817-1 1-233)
Sequence (Q07817 whole entry): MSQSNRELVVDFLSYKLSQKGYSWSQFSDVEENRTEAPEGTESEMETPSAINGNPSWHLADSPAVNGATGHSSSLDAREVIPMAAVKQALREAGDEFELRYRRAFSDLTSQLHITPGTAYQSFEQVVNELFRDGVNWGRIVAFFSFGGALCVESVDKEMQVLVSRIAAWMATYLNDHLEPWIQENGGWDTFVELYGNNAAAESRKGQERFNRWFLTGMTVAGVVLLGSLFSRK
protocol-text: fluorescence polarisation
Exercise: for every item that follows, state its recorded Ki.
Form entry: value (nM) — number only.

Ki reading for H-RPEIWMAQVLRRFGDLLNAYYAR-OH [FD2] : 18

Ki reading for Ac-RPEIWLAQYLRRLGDQINAYYAR-NH2 [FD1] : 5

Ki reading for Ac-RPEIWIAQGLRRIGDTWNAYYAR-NH2 [FW1 (unlabeled, 23 residues)] : 20

Ki reading for Ac-RPEIWIAQELRRAGDVLNAYYAR-NH2 [FA1 (unlabeled, 23 residues)] : 8

The measurements presented in this section are drawn from paper PMC3631442.
